# assayed_target: CDKL2; also: reference of the scale not given here
# assay_notes: pooled miR-30 sensor sort-seq; sequence = guide strand
# test_settings: shRNA
Reported sensor-assay potency score (higher = more potent) values are given for each entry in this list.
Answer field: number only, no words.

Guide cases for sensor-assay potency score (higher = more potent), answers given:
Query "TTTCAGGCAACCTTACTCCAGC" yields sensor-assay potency score (higher = more potent) of -0.594

Query "TTTGTCATCGTCACTTTCTAAG" yields sensor-assay potency score (higher = more potent) of -0.977

Query "TAGTAACTTGATTTCTCGCATT" yields sensor-assay potency score (higher = more potent) of -0.927

Query "TTTCTTTCTTCAACTAAGGAAT" yields sensor-assay potency score (higher = more potent) of -1.1

Query "TTTAACTGTAGTTCTTGGGAAA" yields sensor-assay potency score (higher = more potent) of -0.938

Query "TTCAACTAAGGAATCATCTTTT" yields sensor-assay potency score (higher = more potent) of 0.409

Query "TTAGATAAAGAAACATTTCTGG" yields sensor-assay potency score (higher = more potent) of 0.295

Query "TACTTTTAACTGTAGTTCTTGG" yields sensor-assay potency score (higher = more potent) of -0.4

Turning to the following sequence.
Query "TAGATAAAGAAACATTTCTGGC" yields sensor-assay potency score (higher = more potent) of -0.719
